# protocol-notes: budding yeast growth modifiers under rapamycin – strain BY4716, OD600, 96 h, primary screen (AID 1091); also: test concentration not given here
# experimental-setup: S. cerevisiae BY4716 + rapamycin, higher = more signal, called active from +8 up or from −8 down
Give z-score for every item shown.
Numbers only.

Below, each entry is followed by its recorded z-score result.
# input Could you please provide reported z-score for O=C1O[C@H](c2ccccc2)[C@H](c2ccccc2)N2[C@H]1[C@@H](C(=O)NC[C@H](O)c1ccccc1)[C@]1(C(=O)Nc3ccc(C#CC4=CCCCC4)cc31)[C@H]2c1ccc(O)cc1 ? Thanks!
# output 1.62

# input Could you please provide reported z-score for O=c1cccc(-c2ccccc2)o1 ? Thanks!
# output -0.482

Look at each molecule and report its z-score.
1. O=[N+]([O-])c1ccc(C[n+]2ccc(CCCO)cc2)o1
2. CCCCN1CC=CC23O[C@@H]4/C=C\CCCOC(=O)C4[C@H]2C(=O)N(C(C)CO)[C@@H]3C1=O (some centres undefined)

# output
1. -0.302
2. -0.417
